B1: TPR t1 (parent)
chain: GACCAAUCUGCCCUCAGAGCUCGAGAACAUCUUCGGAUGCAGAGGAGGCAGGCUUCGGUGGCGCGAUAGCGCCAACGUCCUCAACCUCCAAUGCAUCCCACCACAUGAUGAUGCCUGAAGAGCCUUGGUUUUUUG

Variants of: B1
assay procedure: polymerase ribozyme fitness, log enrichment relative to wild type (log ratio); higher = more active; in vitro selection for triplet polymerase activity
parameter: polymerase ribozyme fitness (log ratio)

Known results for variants:
G61U G113C U130G G135U; -3.21
A90U C97U; -2.38

Incoming: Recorded polymerase ribozyme fitness (log ratio) of A91C G127C , please.
Outgoing: -2.93
